// values below are reported EC50
# system_tested: T1, human CDH6 on tumor cells (OVCAR3 cells, PA-1 cells) (human, UniProt P55285 54-790)
# T1 sequence: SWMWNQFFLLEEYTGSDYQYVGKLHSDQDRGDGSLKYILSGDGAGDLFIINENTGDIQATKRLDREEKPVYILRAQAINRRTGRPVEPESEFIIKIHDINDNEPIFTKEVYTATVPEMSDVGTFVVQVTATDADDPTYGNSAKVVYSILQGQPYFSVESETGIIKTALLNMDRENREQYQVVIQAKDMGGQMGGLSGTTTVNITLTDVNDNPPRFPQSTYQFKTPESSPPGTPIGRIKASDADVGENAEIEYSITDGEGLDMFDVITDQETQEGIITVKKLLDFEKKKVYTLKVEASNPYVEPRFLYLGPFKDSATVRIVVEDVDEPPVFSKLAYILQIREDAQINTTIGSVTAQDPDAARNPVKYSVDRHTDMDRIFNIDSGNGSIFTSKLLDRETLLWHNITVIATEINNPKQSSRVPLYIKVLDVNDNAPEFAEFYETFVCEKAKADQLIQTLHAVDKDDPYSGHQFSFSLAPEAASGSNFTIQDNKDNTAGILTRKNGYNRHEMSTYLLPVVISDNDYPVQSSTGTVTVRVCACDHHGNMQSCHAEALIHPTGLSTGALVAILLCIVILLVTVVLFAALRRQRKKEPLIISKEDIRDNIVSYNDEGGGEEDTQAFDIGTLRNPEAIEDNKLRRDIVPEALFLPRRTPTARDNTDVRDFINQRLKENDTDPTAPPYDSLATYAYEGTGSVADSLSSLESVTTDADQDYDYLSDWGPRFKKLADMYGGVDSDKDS
# protocol_text: FACS, OVCAR3 cells
Your answer is read as nM, so omit the unit and give the number.

Check out these entries, answers already filled in.
binder="hCDH6-1-H2L1 (antibody, V domains shown, Humanized) VH: EVQLVQSGAEVKKPGSSVKVSCKASGYTFTNYWMHWVRQAPGQGLEWMGDIDPSHSETHYTQKFKDRVTITVDKSTSTAYMELSSLRSEDTAVYYCARGDLGRFDYWGQGTTVTVSS VL: DIVMTQSPDSLAVSLGERATINCRASESVSIHGTHLMHWYQQKPGQPPKLLIYAASNLESGVPDRFSGSGSETDFTLTISSLQAEDVAVYYCQQSFEDPWTFGGGTKVEIK" recorded_measurement=0.228
binder="hCDH6-1-H2L3 (antibody, V domains shown, Humanized) VH: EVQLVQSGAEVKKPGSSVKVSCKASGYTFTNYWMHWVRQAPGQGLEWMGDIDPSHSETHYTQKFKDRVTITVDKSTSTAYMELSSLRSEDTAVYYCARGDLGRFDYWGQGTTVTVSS VL: DIQMTQSPSSLSASVGDRVTITCRASESVSIHGTHLMHWYQQKPGKPPKLLIYAASNLESGVPSRFSGSGSETDFTFTISSLQPEDIATYYCQQSFEDPWTFGGGTKVEIK" recorded_measurement=0.17
binder="hCDH6-1-H3L2 (antibody, V domains shown, Humanized) VH: EVQLVQSGAEVKKPGSSVKVSCKASGYTFTNYWMHWVRQAPGQGLEWMGDIDPSHSETHYTQKFKDRVTLTVDKSTSTAYMELSSLRSEDTAVYYCARGDLGRFDYWGQGTTVTVSS VL: DIVMTQSPDSLAVSLGERATINCRASESVSIHGTHLMHWYQQKSGQPPKLLIYAASNLESGVPDRFSGSGSETDFTLTISSLQAEDVAVYYCQQSFEDPWTFGGGTKVEIK" recorded_measurement=0.167

Given hCDH6-1-H4L1 (antibody, V domains shown, Humanized) VH: EVQLVQSGAEVKKPGSSVKVSCKASGYTFTNYWMHWVRQRPGQGLEWMGDIDPSHSETHYTQKFKDRVTITVDKSTSTAYMELSSLRSEDTAVYYCARGDLGRFDYWGQGTTVTVSS VL: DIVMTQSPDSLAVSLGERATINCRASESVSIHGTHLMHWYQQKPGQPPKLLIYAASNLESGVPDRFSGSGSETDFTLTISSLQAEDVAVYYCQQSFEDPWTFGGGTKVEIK , state its recorded EC50.
0.152

Next binder: hCDH6-1-H3L3 (antibody, V domains shown, Humanized) VH: EVQLVQSGAEVKKPGSSVKVSCKASGYTFTNYWMHWVRQAPGQGLEWMGDIDPSHSETHYTQKFKDRVTLTVDKSTSTAYMELSSLRSEDTAVYYCARGDLGRFDYWGQGTTVTVSS VL: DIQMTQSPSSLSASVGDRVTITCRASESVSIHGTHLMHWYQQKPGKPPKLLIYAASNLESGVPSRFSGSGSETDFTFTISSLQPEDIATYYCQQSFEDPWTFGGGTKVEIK
0.155

Next record, please: hCDH6-1-H1L2 (antibody, V domains shown, Humanized) VH: EVQLVQSGAEVKKPGSSVKVSCKASGYTFSNYWMHWVRQAPGQGLEWMGDIDPSHSETHYTQKFKDRVTITVDKSTSTAYMELSSLRSEDTAVYYCARGDLGRFDYWGQGTTVTVSS VL: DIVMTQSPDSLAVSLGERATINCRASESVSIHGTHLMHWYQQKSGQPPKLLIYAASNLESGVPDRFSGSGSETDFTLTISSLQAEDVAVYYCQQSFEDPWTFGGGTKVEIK
0.177

Just for reference, patent US20260234242A1 is where these values come from.
